Overview of recorded yeast fitness for various variants
B1: tRNA (parent)
chain: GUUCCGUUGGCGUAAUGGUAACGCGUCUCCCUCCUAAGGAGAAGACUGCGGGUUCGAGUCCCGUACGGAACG

variants of: B1; test: yeast fitness relative to wild type (ratio to wild type); higher = fitter; tRNA-Arg(CCU), competitive growth, 37 C, YPD
Variants at the floor of the assay were thinned out.
Output spec: single numeric token, no unit.

So what's the measured yeast fitness for this one? C5G U8C C11A U26C U35C G50C G52A
0.634

Value lookup for yeast fitness; key = C4U C31U C61G
0.58
